Catalogue of selectivity ratio readings, one per entry.
Assay: Selectivity index, ratio of CC50 for MDCK cells to IC50 antiviral activity against Influenza A virus (A/Puerto Rico/8/1934(H1N1)) infected in MDCK cells assessed as reduction in virus induced cytopathic effect pre-treated with virus
Assay type: toxicity, cell-based
Details: dog, read-out: Selectivity Index
Simply state the number, no unit and no words.

# compound_structure, selectivity ratio
records = [
    ("CCOC(=O)c1c(CSc2ccccc2)n(C)c2cc(Br)c(O)c(CN(C)C)c12.Cl", 91.4),
]

Please look at the following molecule next.
Input `CC(C)CCC[C@@H](C)[C@H]1CC[C@H]2[C@@H]3CC=C4C[C@@H](OC(=O)CN[C@@H](CCCCN)C(=O)N[C@@H](CCCCN)C(=O)N[C@@H](Cc5c[nH]c6ccccc56)C(=O)N[C@@H](CCCCN)C(N)=O)CC[C@]4(C)[C@H]3CC[C@]12C` . Output selectivity ratio: 30.5
